Quick reference for fold change (FC) among some compounds
- TARGET_DESC: SH2 domain-containing protein 1A (Homo sapiens) (UniProt O60880)
- Sequence (O60880 whole entry, the tested form may be a part): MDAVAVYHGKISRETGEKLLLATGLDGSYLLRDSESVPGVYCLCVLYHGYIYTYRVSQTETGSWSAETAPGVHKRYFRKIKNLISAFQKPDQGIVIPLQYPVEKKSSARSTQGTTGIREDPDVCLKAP
- EXPERIMENT_DESCRIPTION: Inhibition of recombinant 6-His-tagged SLAM associated protein SH2 domain (unknown origin) expressed in Escherichia coli BL21(DE3) binding to biotinyl-KKSLTIpYAQVQK-NH2 attached to NeutrAvidin-coated plates using p-nitrophenyl phosphate as substrate at 10 uM after 1 hr relative to control
// return just the number, without any unit appended

Need fold change (FC), item "COC(=O)[C@H](Cc1ccc2c(c1)COP(=O)(O)O2)NC(=O)[C@H](CCC(N)=O)NC(=O)OCC1c2ccccc2-c2ccccc21"
1.09

Need fold change (FC), item "COC(=O)[C@H](Cc1ccc2c(c1)COP(=O)(O)O2)NC(=O)[C@H](Cc1cn(C(c2ccccc2)(c2ccccc2)c2ccccc2)cn1)NC(=O)OCC1c2ccccc2-c2ccccc21"
1.06

Need fold change (FC), item "C[C@@H](O)[C@H](NC(=O)[C@H](Cc1ccc2c(c1)COP(=O)(O)O2)NC(=O)OCC1c2ccccc2-c2ccccc21)C(N)=O"
1.22

Need fold change (FC), item "COC(=O)[C@H](Cc1ccc2c(c1)COP(=O)(O)O2)NC(=O)[C@H](CC(=O)NC(c1ccccc1)(c1ccccc1)c1ccccc1)NC(=O)OCC1c2ccccc2-c2ccccc21"
1.06

Need fold change (FC), item "COC(=O)[C@H](Cc1ccc2c(c1)COP(=O)(O)O2)NC(=O)[C@H](CCCCNC(=O)OC(C)(C)C)NC(=O)OCC1c2ccccc2-c2ccccc21"
0.85

Need fold change (FC), item "COC(=O)[C@H](Cc1ccc2c(c1)COP(=O)(O)O2)NC(=O)[C@H](CCSC)NC(=O)OCC1c2ccccc2-c2ccccc21"
0.85

----------
- TARGET_DESC: SH2 domain-containing protein 1A (Homo sapiens)
- EXPERIMENT_DESCRIPTION: Inhibition of recombinant 6-His-tagged SLAM associated protein SH2 domain (unknown origin) expressed in Escherichia coli BL21(DE3) binding to biotinyl-KKSLTIpYAQVQK-NH2 attached to NeutrAvidin-coated plates using p-nitrophenyl phosphate as substrate at 10 uM after 1 hr relative to control
EXPERIMENTAL_ENDPOINT: fold change (FC)

As a guide, the following entries are already answered.
1) CC(C)[C@H](NC(=O)[C@H](Cc1ccc2c(c1)COP(=O)(O)O2)NC(=O)OCC1c2ccccc2-c2ccccc21)C(N)=O : 1
2) COC(=O)[C@H](Cc1ccc2c(c1)COP(=O)(O)O2)NC(=O)[C@H](Cc1ccc2c(c1)COP(=O)(O)O2)NC(=O)OCC1c2ccccc2-c2ccccc21 : 1.09

Item "CC(C)(C)OC(=O)n1cc(C[C@H](NC(=O)[C@H](Cc2ccc3c(c2)COP(=O)(O)O3)NC(=O)OCC2c3ccccc3-c3ccccc32)C(N)=O)c2ccccc21" with SH2 domain-containing protein 1A (Homo sapiens) - fold change (FC)?
1.33

Item "COC(=O)[C@H](Cc1ccc2c(c1)COP(=O)(O)O2)NC(=O)[C@H](CO)NC(=O)OCC1c2ccccc2-c2ccccc21" with SH2 domain-containing protein 1A (Homo sapiens) - fold change (FC)?
1.13

Item "COC(=O)[C@H](Cc1ccc2c(c1)COP(=O)(O)O2)NC(=O)[C@H](Cc1c[nH]c2ccccc12)NC(=O)OCC1c2ccccc2-c2ccccc21" with SH2 domain-containing protein 1A (Homo sapiens) - fold change (FC)?
0.94

Item "N=C(N)NCCC[C@H](NC(=O)[C@H](Cc1ccc2c(c1)COP(=O)(O)O2)NC(=O)OCC1c2ccccc2-c2ccccc21)C(N)=O" with SH2 domain-containing protein 1A (Homo sapiens) - fold change (FC)?
0.94

----------
- TARGET_DESC: SH2 domain-containing protein 1A (Homo sapiens)
- EXPERIMENT_DESCRIPTION: Inhibition of recombinant 6-His-tagged SLAM associated protein SH2 domain (unknown origin) expressed in Escherichia coli BL21(DE3) binding to biotinyl-KKSLTIpYAQVQK-NH2 attached to NeutrAvidin-coated plates using p-nitrophenyl phosphate as substrate at 10 uM after 1 hr relative to control
Binning of fold change (FC) into classes: low interval: < 0.8; middle interval: ≥ 0.8 and < 1; high interval: ≥ 1

1. NC(=O)[C@@H]1CCCN1C(=O)[C@H](Cc1ccc2c(c1)COP(=O)(O)O2)NC(=O)OCC1c2ccccc2-c2ccccc21 : high interval
2. NC(=O)[C@H](Cc1c[nH]c2ccccc12)NC(=O)[C@H](Cc1ccc2c(c1)COP(=O)(O)O2)NC(=O)OCC1c2ccccc2-c2ccccc21 : high interval
3. COC(=O)[C@H](Cc1ccc2c(c1)COP(=O)(O)O2)NC(=O)[C@H](Cc1cn(C(=O)OC(C)(C)C)c2ccccc12)NC(=O)OCC1c2ccccc2-c2ccccc21 : high interval
4. NC(=O)[C@H](Cc1ccccc1)NC(=O)[C@H](Cc1ccc2c(c1)COP(=O)(O)O2)NC(=O)OCC1c2ccccc2-c2ccccc21 : low interval
5. COC(=O)[C@H](Cc1ccc2c(c1)COP(=O)(O)O2)NC(=O)[C@H](CC(=O)O)NC(=O)OCC1c2ccccc2-c2ccccc21 : middle interval
6. CC(C)(C)OC(=O)NCCCC[C@H](NC(=O)[C@H](Cc1ccc2c(c1)COP(=O)(O)O2)NC(=O)OCC1c2ccccc2-c2ccccc21)C(N)=O : low interval

// return the class label for "CSCC[C@H](NC(=O)[C@H](Cc1ccc2c(c1)COP(=O)(O)O2)NC(=O)OCC1c2ccccc2-c2ccccc21)C(N)=O"
middle interval

// return the class label for "COC(=O)[C@H](Cc1ccc2c(c1)COP(=O)(O)O2)NC(=O)[C@H](CCC(=O)OC(C)(C)C)NC(=O)OCC1c2ccccc2-c2ccccc21"
high interval

Hello, the source for this data is ChEMBL document CHEMBL2321862, in case you need it.
